target: Receptor tyrosine-protein kinase erbB-4 (Homo sapiens)
Sequence (Q15303 whole entry): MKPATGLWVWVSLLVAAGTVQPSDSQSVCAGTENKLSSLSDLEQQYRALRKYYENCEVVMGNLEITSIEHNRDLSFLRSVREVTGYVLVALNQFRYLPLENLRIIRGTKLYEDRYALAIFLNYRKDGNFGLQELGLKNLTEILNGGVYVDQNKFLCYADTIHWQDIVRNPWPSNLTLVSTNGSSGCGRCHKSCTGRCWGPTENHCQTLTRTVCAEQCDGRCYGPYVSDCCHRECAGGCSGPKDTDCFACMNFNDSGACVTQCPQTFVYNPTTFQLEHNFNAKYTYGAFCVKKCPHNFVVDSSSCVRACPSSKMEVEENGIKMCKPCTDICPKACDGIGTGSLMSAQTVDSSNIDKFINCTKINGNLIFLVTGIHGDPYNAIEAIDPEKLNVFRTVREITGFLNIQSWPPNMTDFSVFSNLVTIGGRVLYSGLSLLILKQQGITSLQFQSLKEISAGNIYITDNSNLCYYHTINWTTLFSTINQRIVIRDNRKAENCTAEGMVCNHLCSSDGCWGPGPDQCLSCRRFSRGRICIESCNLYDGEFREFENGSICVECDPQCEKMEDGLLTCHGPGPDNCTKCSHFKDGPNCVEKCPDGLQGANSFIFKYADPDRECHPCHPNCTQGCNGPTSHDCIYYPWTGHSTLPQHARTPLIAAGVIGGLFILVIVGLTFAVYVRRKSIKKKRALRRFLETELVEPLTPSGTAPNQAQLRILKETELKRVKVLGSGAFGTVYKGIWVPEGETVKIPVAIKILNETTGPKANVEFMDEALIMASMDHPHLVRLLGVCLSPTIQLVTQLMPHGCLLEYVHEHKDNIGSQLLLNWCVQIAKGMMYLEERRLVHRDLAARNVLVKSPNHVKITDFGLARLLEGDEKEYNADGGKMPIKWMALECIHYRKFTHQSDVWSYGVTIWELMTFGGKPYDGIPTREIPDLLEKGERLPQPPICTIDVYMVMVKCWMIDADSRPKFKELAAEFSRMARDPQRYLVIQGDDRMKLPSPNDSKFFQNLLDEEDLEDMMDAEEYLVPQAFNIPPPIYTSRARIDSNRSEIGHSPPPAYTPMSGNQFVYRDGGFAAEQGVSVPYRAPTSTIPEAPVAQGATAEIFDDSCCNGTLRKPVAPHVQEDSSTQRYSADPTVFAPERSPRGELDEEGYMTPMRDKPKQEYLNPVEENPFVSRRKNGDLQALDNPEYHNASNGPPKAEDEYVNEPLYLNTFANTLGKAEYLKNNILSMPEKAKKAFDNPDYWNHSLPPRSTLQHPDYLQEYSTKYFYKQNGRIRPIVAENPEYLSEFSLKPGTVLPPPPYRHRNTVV
pIC50: −log10 of the molar value.

chemical_string | assay_target | pIC50
OCCOCn1ccc2ncnc(Nc3cnc(Oc4cccc(C(F)(F)F)c4)c(Cl)c3)c21 | Receptor tyrosine-protein kinase erbB-4 (Homo sapiens) | < 5.00
